Cited source: PubChem BioAssay AID1159580

# reported normalized growth; entries follow
assay: chemical genetic growth profiling, strain panel (AID 1159580);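 also: tested at 20 µM; growth read once vehicle control cultures reached saturation at 30 °C; 1 = growth at the plate median or of vehicle wells; lower values mean less growth of the strain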; conditions: S. cerevisiae deletion strains, growth OD, locus YHR079C, strain IRE1, stronger effect = lower value
Screen size: about 5,500 compounds; about 2,000 (36%) were called active. Not shown: some 18% with an inconclusive outcome. Some of the results follow.

- COMPOUND: "CCC(C)n1ncn(-c2ccc(N3CCN(c4ccc(OC[C@H]5CO[C@](Cn6cncn6)(c6ccc(Cl)cc6Cl)O5)cc4)CC3)cc2)c1=O (stereo partly drawn)"
  normalized growth: 0.19
- COMPOUND: "NCCCC(O)(P(=O)(O)O)P(=O)(O)O"
  normalized growth: 0.968
- COMPOUND: "COCCCOc1ccnc(CS(=O)c2nc3ccccc3[nH]2)c1C (stereo not drawn)"
  normalized growth: 0.93
- COMPOUND: "CCC(=O)O[C@]1(C(=O)CCl)[C@@H](C)CC2C3CCC4=CC(=O)C=C[C@]4(C)[C@@]3(F)[C@@H](O)C[C@@]21C (stereo partly drawn)"
  normalized growth: 0.957
- COMPOUND: "CCC(=O)OCC(=O)[C@@]1(OC(=O)CC)[C@@H](C)CC2C3CCC4=CC(=O)C=C[C@]4(C)C3(F)[C@@H](O)C[C@@]21C (stereo partly drawn)"
  normalized growth: 1.02
- COMPOUND: "CN[C@H]1CC[C@@H](c2ccc(Cl)c(Cl)c2)c2ccccc21"
  normalized growth: 0.959
- COMPOUND: "COc1ccc(-c2cc(=O)c3c(OC)c(OC)c(OC)c(OC)c3o2)cc1OC"
  normalized growth: 1.01
- COMPOUND: "C/C=C/CC(C)C(O)C1C(=O)NC(CC)C(=O)N(C)CC(=O)N(C)C(CC(C)C)C(=O)NC(C(C)C)C(=O)N(C)C(CC(C)C)C(=O)NC(C)C(=O)NC(C)C(=O)N(C)C(CC(C)C)C(=O)N(C)C(CC(C)C)C(=O)N(C)C(C(C)C)C(=O)N1C (stereo not drawn)"
  normalized growth: 0.991
- COMPOUND: "C/C(=N/NC(N)=S)c1csc(-c2ccccc2)n1"
  normalized growth: 0.663
- COMPOUND: "Oc1ccc([C@H]2Oc3cc(O)cc(O)c3C[C@H]2O)cc1"
  normalized growth: 0.981
- COMPOUND: "CC[C@@]1(O)C(=O)OCc2c1cc1n(c2=O)Cc2cc3ccccc3nc2-1"
  normalized growth: 0.791
- COMPOUND: "CCCCC(=O)O[C@]1(C(=O)CO)[C@@H](C)CC2C3CCC4=CC(=O)C=C[C@]4(C)[C@@]3(F)C(O)C[C@@]21C (stereo partly drawn)"
  normalized growth: 0.977
- COMPOUND: "O=c1c(O)cc([C@H]2Oc3cc(O)cc(O)c3C[C@H]2O)cc2c([C@H]3Oc4cc(O)cc(O)c4C[C@H]3O)cc(O)c(O)c12"
  normalized growth: 0.999
- COMPOUND: "N/C(=N/OC(=O)Nc1cccc(C(F)(F)F)c1)c1ccc(OC(F)(F)F)cc1"
  normalized growth: 0.306
- COMPOUND: "CCn1nc(C(=O)O)c(=O)c2cc3c(cc21)OCO3"
  normalized growth: 0.999
- COMPOUND: "CN(C)C(=O)C(CCN1CCC(O)(c2ccc(Cl)cc2)CC1)(c1ccccc1)c1ccccc1"
  normalized growth: 0.987
- COMPOUND: "CCn1nc(C)cc1C(=O)Sc1cccc(Br)c1"
  normalized growth: 0.476
- COMPOUND: "CC1(C)C=Cc2cc(/C(N)=N\\OC(=O)Nc3cccc(C(F)(F)F)c3)ccc2O1"
  normalized growth: 0.825
